Biological target: BTK^C481S (Homo sapiens (Human), UniProt Q06187, C481S)
Sequence (Q06187 whole entry C481S): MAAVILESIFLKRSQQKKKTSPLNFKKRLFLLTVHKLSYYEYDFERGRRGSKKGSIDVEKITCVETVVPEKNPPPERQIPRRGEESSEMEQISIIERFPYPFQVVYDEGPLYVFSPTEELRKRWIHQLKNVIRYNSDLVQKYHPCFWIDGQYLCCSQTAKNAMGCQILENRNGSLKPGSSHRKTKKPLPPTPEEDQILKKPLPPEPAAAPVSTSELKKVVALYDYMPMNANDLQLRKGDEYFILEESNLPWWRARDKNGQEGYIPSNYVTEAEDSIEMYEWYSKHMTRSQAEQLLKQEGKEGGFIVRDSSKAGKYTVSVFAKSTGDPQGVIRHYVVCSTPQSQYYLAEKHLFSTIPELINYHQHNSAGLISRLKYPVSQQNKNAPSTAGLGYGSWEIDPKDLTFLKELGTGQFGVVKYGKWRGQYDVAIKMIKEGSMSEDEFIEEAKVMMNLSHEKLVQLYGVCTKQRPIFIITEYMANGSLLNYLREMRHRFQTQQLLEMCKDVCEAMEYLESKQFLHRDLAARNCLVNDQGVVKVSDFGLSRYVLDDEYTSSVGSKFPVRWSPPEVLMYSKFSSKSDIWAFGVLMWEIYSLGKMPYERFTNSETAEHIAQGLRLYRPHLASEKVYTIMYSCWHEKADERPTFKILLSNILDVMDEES
Assay: BTK enzyme activity assay
Details: 200 μM ATP; 33P-ATP, filter-binding method
measure: IC50 (nM)

compound=O=C(c1ccc(Oc2ccccc2)cc1Cl)c1c[nH]c2ncnc(N[C@H]3CO[C@H](CO)C[C@@H]3F)c12 endpoint_result=6.7
compound=[2H]C([2H])([2H])O[C@@H]1C[C@@H](CO)OC[C@@H]1Nc1ncnc2[nH]cc(C(=O)c3ccc(Oc4ccccc4)cc3Cl)c12 endpoint_result=15.1
compound=CO[C@@H]1C[C@@H](CO)OC[C@@H]1Nc1ncnc2[nH]cc(C(=O)c3ccc(Oc4ccccc4)cc3Cl)c12 endpoint_result=7.3
compound=N#CC[C@@H]1CC[C@@H](Nc2ncnc3[nH]cc(C(=O)c4ccc(Oc5ccccc5)cc4Cl)c23)CO1 endpoint_result=6.5
compound=CO[C@@H]1C[C@@H](CO)OC[C@@H]1Nc1ncnc2[nH]cc(C(=O)c3ccc(Oc4ccccc4)cc3F)c12 endpoint_result=14.9

I = O=C(c1ccc(Oc2ccccc2)cc1Cl)c1c[nH]c2ncnc(N[C@H]3CO[C@H](CO)CC3(F)F)c12
II = CO[C@H]1C[C@@H](CO)OC[C@@H]1Nc1ncnc2[nH]cc(C(=O)c3ccc(Oc4ccccc4)cc3Cl)c12
III = O=C(c1ccc(Oc2ccccc2)cc1Cl)c1c[nH]c2ncnc(N[C@H]3CO[C@H](CO)C4CC43)c12 (stereo partly drawn)
Order the entries by their reported IC50, beginning at the minimum. To answer, write out the labels according to the requested order. III, I, II
(III: 1.7 nM, I: 12.5 nM, II: 43.6 nM)

A = CO[C@@H]1C[C@@H](CO)OC[C@@H]1Nc1ncnc2[nH]cc(C(=O)c3ccc(Oc4ccccc4)cc3C)c12
B = CO[C@@H]1C[C@@H](CO)OC[C@@H]1Nc1ncnc2[nH]cc(C(=O)c3ccc(Oc4ccccc4F)cc3Cl)c12
Kindly identify which of A and B has the larger recorded IC50 value. Return value: the label identifying the chosen record. B
(B: 39.8 nM, A: 15.2 nM)

---

Test: Pharmacokinetic evaluation in CD-1 mouse (oral)
Format: in vivo
Details: male, plasma, 3.1 mg/kg
measure: bioavailability (%)
State just the number; it will be interpreted in %.

Which bioavailability value belongs to CO[C@@H]1C[C@@H](CO)OC[C@@H]1Nc1ncnc2[nH]cc(C(=O)c3ccc(Oc4ccccc4)cc3Cl)c12 [Compound 4] ? 71.7

---

Test: Pharmacokinetic evaluation in CD-1 mouse (oral)
Format: in vivo
Settings: male, plasma, 3.1 mg/kg
Protocol: Assay purpose: To assay the pharmacokinetics of the compound in CD-1 mouse (oral) Pharmacokinetic study of oral and intravenously injected compound 4 and reference example 1 (compound 005-1) in CD-1 mouse. […] Whole blood was collected for a certain period of time to prepare the plasma. Drug concentration was analyzed by LC-MS/MS, and pharmacokinetic parameters were calculated by Phoenix WinNonlin software (Pharsight, USA).
measure: AUC(0-inf) (µM·h)
Report the figure in µM·h without appending any unit label.

Request the reported AUC(0-inf) associated with CO[C@@H]1C[C@@H](CO)OC[C@@H]1Nc1ncnc2[nH]cc(C(=O)c3ccc(Oc4ccccc4)cc3Cl)c12 [Compound 4] 33.2

Attribution: patent US20230357248A1
